biological target: Mast/stem cell growth factor receptor Kit (Homo sapiens) (UniProt P10721); conditions: at 1 µM
Sequence (P10721 whole entry): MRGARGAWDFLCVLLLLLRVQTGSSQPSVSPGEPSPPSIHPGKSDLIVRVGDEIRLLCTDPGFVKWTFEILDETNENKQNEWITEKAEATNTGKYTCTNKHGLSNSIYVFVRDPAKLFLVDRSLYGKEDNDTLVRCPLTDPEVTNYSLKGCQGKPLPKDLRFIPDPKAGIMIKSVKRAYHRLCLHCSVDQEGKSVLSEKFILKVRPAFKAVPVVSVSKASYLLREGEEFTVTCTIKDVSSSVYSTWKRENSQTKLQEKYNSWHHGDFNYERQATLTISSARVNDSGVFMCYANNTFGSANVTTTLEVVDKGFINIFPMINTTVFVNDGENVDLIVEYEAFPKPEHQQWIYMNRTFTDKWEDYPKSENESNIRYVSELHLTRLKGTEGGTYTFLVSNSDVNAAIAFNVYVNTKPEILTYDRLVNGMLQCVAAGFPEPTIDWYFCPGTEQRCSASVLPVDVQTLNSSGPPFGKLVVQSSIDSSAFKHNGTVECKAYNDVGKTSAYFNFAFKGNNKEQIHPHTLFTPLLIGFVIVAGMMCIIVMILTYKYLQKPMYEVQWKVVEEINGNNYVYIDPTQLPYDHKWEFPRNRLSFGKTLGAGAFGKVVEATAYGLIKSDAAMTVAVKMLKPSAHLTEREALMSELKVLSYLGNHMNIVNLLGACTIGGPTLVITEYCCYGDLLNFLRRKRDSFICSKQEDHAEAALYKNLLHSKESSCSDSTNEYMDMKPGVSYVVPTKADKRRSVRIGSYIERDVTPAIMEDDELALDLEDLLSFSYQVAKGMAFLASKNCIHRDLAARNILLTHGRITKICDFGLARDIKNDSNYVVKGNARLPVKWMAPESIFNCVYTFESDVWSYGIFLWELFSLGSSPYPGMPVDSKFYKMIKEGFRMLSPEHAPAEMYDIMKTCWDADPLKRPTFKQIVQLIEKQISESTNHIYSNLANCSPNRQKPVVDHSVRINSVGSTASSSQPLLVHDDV
quantity kind: inhibition (%)
Numbers only, in %.

>>> measured_result("Cc1ccc(Nc2ccnc(Nc3cccc(C(N)=O)c3)n2)cc1O")
42.7
>>> measured_result("N#Cc1cccc(Nc2nccc(-c3cnn4ncccc34)n2)c1")
100
>>> measured_result("COc1ccc(-c2nn3ncccc3c2-c2ccnc(Nc3cccc(C(F)(F)F)c3)n2)cc1")
26.5
>>> measured_result("COc1ccc2ncnc(Nc3ccc(OCc4ccccc4)cc3)c2c1")
9.52
>>> measured_result("COc1cc2ncnc(Nc3ccc(C)c(O)c3)c2cc1OC")
40.5

Record inhibition per entry; entries follow.
1. CN1CCN(C(=O)c2ccc(NC(=O)Nc3ccc(N(C)c4ccnc(Nc5ccc(CS(C)(=O)=O)cc5)n4)cc3)cc2)CC1
2. Cc1ccc(O)cc1Nc1ccnc2ccc(S(C)(=O)=O)cc12
3. Cc1cc(O)cc(C)c1/C=C/c1cncc(C(=O)N(C)C)c1
4. CN(C)C(=O)O[C@@H]1CN[C@@H](C#Cc2cc3ncnc(Nc4ccc(OCc5cccc(F)c5)c(Cl)c4)c3s2)C1
5. COC(=O)Nc1nc2cc(Oc3ccc(NC(=O)Nc4cccc(Br)c4)cc3)ccc2[nH]1

### Response
1: 88.5; 2: 48.2; 3: 8.58; 4: -0.23; 5: 100

// each compound listed below needs its inhibition
1. CCOc1nccc2c1nc(-c1nonc1N)n2CC
2. c1ccc(Cc2nc3ccc(Nc4ncnc5ccccc45)cc3[nH]2)cc1
3. CN(C)CCCn1c(-c2nonc2N)nc2cnccc21

### Response
10.2
11.5
3.91

----------
biological target: Mast/stem cell growth factor receptor Kit (Homo sapiens) (UniProt P10721); conditions: at 0.1 µM
quantity kind: inhibition (%)
Answers are plain numbers, in %.

>>> measured_result("COc1cc2ncnc(Nc3ccc4c(cnn4Cc4ccccc4)c3)c2cc1OC")
2.37
>>> measured_result("Cc1ccc2c(-c3ccnc(Nc4ccc5c(c4)OCCO5)n3)c(-c3ccc(C(F)(F)F)cc3)nn2n1")
-0.52
>>> measured_result("CN(C)C(=O)O[C@@H]1CN[C@@H](C#Cc2cc3ncnc(Nc4ccc(OCc5cccc(F)c5)c(Cl)c4)c3s2)C1")
-1.17
>>> measured_result("NS(=O)(=O)c1ccc(-c2cc3ccncc3cc2OCc2ccccc2)cc1")
4.01

Give me inhibition for each of these compounds, listed below.
1. COc1cc(/C=N/Nc2ncnc3c2cnn3C(C)C)ccc1O
2. ON=C1CCc2cc(-c3nc(C4CCNCC4)[nH]c3-c3ccncc3)ccc21
3. COc1cc2ncnc(Nc3ccc(C)c(O)c3)c2cc1OC

### Response
1. 8.94
2. -3
3. 9.08

----------
Target: Phosphorylase b kinase gamma catalytic chain, liver/testis isoform (Homo sapiens);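 also: reported value is the mean inhibition of PHKG2 from the GSK_PKIS screening set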
Sequence (whole entry): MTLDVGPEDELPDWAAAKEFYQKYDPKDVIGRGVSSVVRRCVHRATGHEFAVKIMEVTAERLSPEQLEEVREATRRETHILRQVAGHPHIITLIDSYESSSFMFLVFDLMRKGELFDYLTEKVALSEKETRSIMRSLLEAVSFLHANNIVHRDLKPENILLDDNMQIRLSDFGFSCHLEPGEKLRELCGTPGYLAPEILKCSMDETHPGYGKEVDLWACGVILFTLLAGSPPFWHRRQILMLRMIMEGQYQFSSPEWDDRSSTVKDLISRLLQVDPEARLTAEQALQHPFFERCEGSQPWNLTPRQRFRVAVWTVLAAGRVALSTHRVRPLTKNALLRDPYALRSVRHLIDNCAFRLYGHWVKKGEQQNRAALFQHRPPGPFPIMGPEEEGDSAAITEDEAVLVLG
Settings: at 1 µM
I'd appreciate it if you could supply inhibition values for the items below.
Give bare numbers, in %.

Record inhibition for all entries; do not skip any.
1. COC(=O)c1ccc2c(c1)C(=Cc1cc(Br)c(O)c(Br)c1)C(=O)N2
2. CC(C)c1ccc2c(c1)NC(=O)/C2=N/Nc1ccc(S(N)(=O)=O)cc1
3. NS(=O)(=O)c1cccc(-c2cc3ccncc3cc2OCc2ccccc2)c1

### Response
3.92
0.32
3.55

----------
Would you mind telling me the reported inhibition of each entry?
target: Ribosomal protein S6 kinase alpha-1 (Homo sapiens) (UniProt Q15418); conditions: at 0.1 µM;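 also: values are mean percent inhibition of RSK1 measured in the GSK PKIS kinase inhibitor set screen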
Sequence (Q15418 whole entry): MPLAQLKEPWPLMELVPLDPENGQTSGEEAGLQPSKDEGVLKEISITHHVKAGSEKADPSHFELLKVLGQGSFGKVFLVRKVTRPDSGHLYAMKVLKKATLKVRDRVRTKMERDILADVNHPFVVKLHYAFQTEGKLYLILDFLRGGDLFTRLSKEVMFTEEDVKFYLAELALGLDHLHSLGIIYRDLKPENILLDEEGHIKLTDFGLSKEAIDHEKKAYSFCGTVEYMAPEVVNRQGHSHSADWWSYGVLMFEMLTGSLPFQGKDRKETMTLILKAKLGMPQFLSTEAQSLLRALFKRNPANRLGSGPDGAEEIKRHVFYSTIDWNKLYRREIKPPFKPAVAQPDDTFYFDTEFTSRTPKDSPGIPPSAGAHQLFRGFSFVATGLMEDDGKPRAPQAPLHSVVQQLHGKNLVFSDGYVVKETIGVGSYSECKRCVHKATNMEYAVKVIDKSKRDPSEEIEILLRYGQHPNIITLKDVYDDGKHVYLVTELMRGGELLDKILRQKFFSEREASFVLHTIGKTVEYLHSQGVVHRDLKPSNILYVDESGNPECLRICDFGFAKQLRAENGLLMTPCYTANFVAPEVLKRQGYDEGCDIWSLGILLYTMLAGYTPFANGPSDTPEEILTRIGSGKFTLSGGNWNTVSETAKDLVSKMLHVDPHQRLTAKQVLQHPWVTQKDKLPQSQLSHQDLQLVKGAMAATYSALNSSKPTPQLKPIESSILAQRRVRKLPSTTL
Answers are plain numbers, in %.

Examples from the recorded data:
>>> measured_result("NC(=O)c1cccc(Nc2nccc(Nc3cccc(F)c3)n2)c1")
-1.2
>>> measured_result("CS(=O)(=O)CCNCc1nc(-c2ccc3ncnc(Nc4ccc(OCc5cccc(C(F)(F)F)c5)cc4)c3c2)cs1")
-1.01
>>> measured_result("NS(=O)(=O)c1ccc(-c2cc3ccncc3cc2OCc2ccccc2)cc1")
1.11

Hey, quick one: what's inhibition for each of these?
1. COc1ccc(-c2nn3ncccc3c2-c2ccnc(Nc3cccc(C(F)(F)F)c3)n2)cc1
2. C[C@@H](Oc1cc(-n2cnc3ccc(OC[C@@H](O)CO)cc32)sc1C(N)=O)c1ccccc1Cl

### Response
1. 1.07
2. 0.36

----------
Target: Muscle, skeletal receptor tyrosine-protein kinase (Homo sapiens) (UniProt O15146);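 also: values are mean inhibition of MuSK from the GSK PKIS kinase screening panel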
Sequence (whole entry): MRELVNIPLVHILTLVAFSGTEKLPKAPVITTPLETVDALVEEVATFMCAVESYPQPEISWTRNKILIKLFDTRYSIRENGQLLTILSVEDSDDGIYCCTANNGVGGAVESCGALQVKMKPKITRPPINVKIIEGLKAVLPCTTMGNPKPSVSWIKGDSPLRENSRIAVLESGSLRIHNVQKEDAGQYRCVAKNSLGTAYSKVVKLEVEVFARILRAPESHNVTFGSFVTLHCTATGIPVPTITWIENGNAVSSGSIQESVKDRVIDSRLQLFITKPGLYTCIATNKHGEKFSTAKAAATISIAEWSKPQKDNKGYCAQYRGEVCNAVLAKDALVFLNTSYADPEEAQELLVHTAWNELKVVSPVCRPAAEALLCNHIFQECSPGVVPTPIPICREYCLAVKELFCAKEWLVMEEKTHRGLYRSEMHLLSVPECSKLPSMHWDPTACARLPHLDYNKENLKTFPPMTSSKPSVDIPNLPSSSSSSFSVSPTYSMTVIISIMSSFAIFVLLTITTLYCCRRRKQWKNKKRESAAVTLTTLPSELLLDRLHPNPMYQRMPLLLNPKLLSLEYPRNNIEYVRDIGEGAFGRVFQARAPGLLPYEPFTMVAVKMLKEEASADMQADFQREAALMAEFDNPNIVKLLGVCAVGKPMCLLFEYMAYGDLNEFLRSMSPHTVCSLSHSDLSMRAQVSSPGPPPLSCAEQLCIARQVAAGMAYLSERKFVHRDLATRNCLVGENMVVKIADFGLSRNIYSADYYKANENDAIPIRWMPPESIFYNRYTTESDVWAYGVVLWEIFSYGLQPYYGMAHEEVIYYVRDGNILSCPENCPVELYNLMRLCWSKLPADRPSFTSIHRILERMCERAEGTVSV
Conditions: at 0.1 µM
I'd be grateful if you could share measured inhibition for these entries.
One number for each entry, in %.

Need inhibition for each of these compounds.
1. Nc1ccc(C#Cc2cncnc2Nc2ccc(OCc3cccc(F)c3)c(Cl)c2)cc1
2. CCS(=O)(=O)c1ccc(OC)c(Nc2ncc(-c3cccc(OC)c3)o2)c1

### Response
1. -0.05
2. 4.87

Would you mind giving inhibition for every compound in the list below?
1. CCn1c(-c2nonc2N)nc2c(C#CC(C)(C)O)nc(OCCNC)cc21
2. O=C(Nc1ccc(Oc2ccc3[nH]c(NC(=O)c4ccco4)nc3c2)cc1)Nc1cc(C(F)(F)F)ccc1F
3. COc1cc(Nc2nccc(-c3cnn4ncccc34)n2)cc(OC)c1
4. C[C@@H](Oc1cc(-n2cnc3ccc(OC[C@@H](O)CO)cc32)sc1C(N)=O)c1ccccc1Cl
5. COC(=O)c1cncc(/C=C/c2c(C)cc(O)cc2C)c1
6. COc1cc2ncn(-c3cc(OCc4ccccc4S(C)(=O)=O)c(C#N)s3)c2cc1OC
7. COc1cccc(-n2nc(C)c3c(N/N=C(\C)c4ccncc4)ncnc32)c1
8. CN(C)CCCn1c(-c2nonc2N)nc2cnccc21

### Response
1: 1.71; 2: 49.9; 3: 6.23; 4: 9.09; 5: 2.48; 6: 13.2; 7: 0.43; 8: -0.43

### Prompt Assign inhibition to the following record: NS(=O)(=O)c1cccc(-c2cc3ccncc3cc2OCc2ccccc2)c1
### Response 0.26

----------
Please provide measured inhibition for the entries that follow.
target: Tyrosine-protein kinase ABL1 (Homo sapiens); conditions: at 0.1 µM
Description: GSK_PKIS: ABL1 mean inhibition at 0.1 uM [Nanosyn]

// worked examples, inhibition included
>>> measured_result("CN1CCN(C(=O)c2ccc(NC(=O)Nc3ccc(N(C)c4ccnc(Nc5ccc(CS(C)(=O)=O)cc5)n4)cc3)cc2)CC1")
"9.79%"
>>> measured_result("NS(=O)(=O)c1ccc(-c2cc3ccncc3cc2OCc2ccccc2)cc1")
"3.52%"
>>> measured_result("CCS(=O)(=O)c1ccc(OC)c(Nc2ncc(-c3cccc(OC)c3)o2)c1")
"29.8%"

Quick request: inhibition for each listed item, please.
1. COc1ccc(-c2nn3ncccc3c2-c2ccnc(Nc3cccc(C(F)(F)F)c3)n2)cc1
2. O=C1Nc2ccc(-c3cccnc3)cc2C1=Cc1cc(Br)c(O)c(Br)c1
3. COc1ccc2ncnc(Nc3ccc(OCc4ccccc4)cc3)c2c1
4. Cc1ccc(Nc2ccnc(Nc3cccc(C(N)=O)c3)n2)cc1O
5. Cc1ccc(O)cc1Nc1ccnc2ccc(S(C)(=O)=O)cc12

### Response
1: 5.5%; 2: 3.97%; 3: 1.65%; 4: 56.4%; 5: 81.3%

Hi team, please reply with inhibition for each item in this list.
1. Cc1ccc(C(=O)NC2CC2)cc1-c1ccc2[nH]ncc2c1
2. O=C(Nc1ccc(Oc2ccc3[nH]c(NC(=O)c4ccco4)nc3c2)cc1)Nc1cc(C(F)(F)F)ccc1F

### Response
1: -0.56%; 2: 27.9%
